ASSAYED SYSTEM: Interferon alpha/beta receptor 1 (Homo sapiens) (UniProt P17181)
Sequence (whole entry): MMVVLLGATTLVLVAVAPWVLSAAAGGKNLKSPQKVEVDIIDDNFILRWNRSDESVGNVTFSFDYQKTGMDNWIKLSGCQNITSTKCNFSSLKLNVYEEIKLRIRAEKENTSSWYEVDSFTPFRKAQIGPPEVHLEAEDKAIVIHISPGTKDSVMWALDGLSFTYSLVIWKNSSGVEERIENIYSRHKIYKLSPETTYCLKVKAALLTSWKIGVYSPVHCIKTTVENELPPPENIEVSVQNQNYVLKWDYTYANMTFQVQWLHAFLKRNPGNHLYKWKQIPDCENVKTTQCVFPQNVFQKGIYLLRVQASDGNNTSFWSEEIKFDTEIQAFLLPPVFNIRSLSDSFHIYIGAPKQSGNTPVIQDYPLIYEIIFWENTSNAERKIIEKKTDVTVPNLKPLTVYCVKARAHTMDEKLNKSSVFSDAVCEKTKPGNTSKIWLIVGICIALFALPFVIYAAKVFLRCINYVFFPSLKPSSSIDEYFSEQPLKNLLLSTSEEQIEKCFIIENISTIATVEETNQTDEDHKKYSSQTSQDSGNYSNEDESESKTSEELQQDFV
TEST SUMMARY: Activity at IFNAR in human Daudi cells assessed as induction of stat1 tyrosine phosphorylation at 100 umol after 5 to 30 mins
Format: cell-based
Activity calls are given as the source filed them. The rule behind the calls is not given here.
READOUT KIND: Activity

Known results for compounds:
1. CC(C)OCCCNc1nc(OCCCN)cc(OC(C)C)n1 ... inactive
2. CN(C)CCSc1nccc(-c2cccs2)n1 ... inactive
3. CC(C)OCCCNc1nc(OCCCCN)cc(OCCN(C)C)n1 ... inactive
4. CC(C)OCCCNc1cc(OCCN(C)C)nc(OCCCNC(=N)N)n1 ... inactive
5. COCCNc1cc(OCCN(C)C)nc(OCCCN)n1 ... inactive
6. CC(C)OCCCNc1nc(OCCN(C)C)cc(OC(C)C)n1 ... inactive

The compound identified as CCOc1cc(OCCCN)nc(NCCCOC(C)C)n1 registered its Activity at inactive

The compound identified as CN(C)CCSc1nccc(-c2ccco2)n1 registered its Activity at inactive

The compound identified as CCOc1cc(N(C)C)nc(NCCCOC(C)C)n1 registered its Activity at inactive

The compound identified as CC(C)OCCCNc1nc(OCCCCNC(=N)N)cc(OCCN(C)C)n1 registered its Activity at inactive

The compound identified as COCCNc1nc(OCCCCNC(=N)N)cc(OCCN(C)C)n1 registered its Activity at inactive
